Tested on: MIA PaCa-2
Settings: OFD1 knockdown: yes (Tet-on shOFD1, 100 ng/mL doxycycline)
assay endpoint: IC50 cell viability (µM)

Sample answers from the record:
compound: CN1CCN(C2=Nc3cc(Cl)ccc3Nc3ccccc32)CC1
IC50 cell viability / µM: 18
//
compound: CC[C@H](Nc1ncnc2[nH]cnc12)c1nc2cccc(F)c2c(=O)n1-c1ccccc1
IC50 cell viability / µM: 24.4
//
compound: CNC(=O)c1ccccc1Sc1ccc2c(/C=C/c3ccccn3)n[nH]c2c1
IC50 cell viability / µM: 43.9
//
compound: COc1cc(Nc2c(C#N)cnc3cc(OCCCN4CCN(C)CC4)c(OC)cc23)c(Cl)cc1Cl
IC50 cell viability / µM: 6.07
//
compound: COc1cc(OC)c(/C=C/S(=O)(=O)Cc2ccc(OC)c(NCC(=O)O)c2)c(OC)c1
IC50 cell viability / µM: 2.01
//
compound: Nc1ccn([C@@H]2O[C@H](CO)[C@@H](O)C2(F)F)c(=O)n1
IC50 cell viability / µM: 3.16

I: CC(=O)c1c(C)c2cnc(Nc3ccc(N4CCNCC4)cn3)nc2n(C2CCCC2)c1=O
II: Cc1c(C(=O)Nc2ccc(N3C[C@@H](C)O[C@@H](C)C3)nc2)cccc1-c1ccc(OC(F)(F)F)cc1
Request: Sort I and II by IC50 cell viability descending and give the first. Mark your selection by writing its label.
Result: I
(I: 46.4 µM, II: 3.2 µM)

I: COc1ccc(-c2nc3cc(C4=NNC(=O)CC4C)ccc3[nH]2)cc1 (stereo not drawn)
II: Cc1cn(-c2cc(NC(=O)c3ccc(C)c(Nc4nccc(-c5cccnc5)n4)c3)cc(C(F)(F)F)c2)cn1
III: C[C@]1(c2nc3c(C(N)=O)cccc3[nH]2)CCCN1
IV: Cc1ccc(C(=O)Nc2ccc(CN3CCN(C)CC3)c(C(F)(F)F)c2)cc1C#Cc1cnc2cccnn12
V: Nc1ncn([C@H]2C[C@H](O)[C@@H](CO)O2)c(=O)n1
Request: # ascending order, key=IC50 cell viability Your answer should be the labels, listed in the requested order.
Result: IV, II, I, III, V

I: COc1cc2nccc(Oc3ccc(NC(=O)NC4CC4)c(Cl)c3)c2cc1C(N)=O
II: O=C1CN2Cc3c(ccc(Cl)c3Cl)N=C2N1
III: CCOc1nc2cccc(C(=O)O)c2n1Cc1ccc(-c2ccccc2-c2nnn[nH]2)cc1
Request: In this exercise, place the 3 compounds in ascending sequence of their recorded IC50 cell viability. Labels, requested order.
Result: III, II, I

1: C[C@]12CC[C@@H]3c4ccc(O)cc4CC[C@H]3[C@@H]1CC[C@@H]2O
2: Cc1ccccc1C(=O)Nc1ccc(C(=O)N2CCCC(O)c3cc(Cl)ccc32)c(C)c1 (stereo not drawn)
3: COc1cc2nccc(Oc3ccc(NC(=O)Nc4cc(C)on4)c(Cl)c3)c2cc1OC
4: FC(F)(F)c1ccc(/C=C/c2nc(COc3ccc(CCCCn4ccnn4)cc3)co2)cc1
Request: Exam item: list the entries in increasing order of IC50 cell viability. Please respond by ranking the labels in the order requested.
Result: 2, 3, 1, 4

P: CC1=C(/C=C/C(C)=C/C=C/C(C)=C/C(=O)O)C(C)(C)CCC1
Q: Cc1cc(C)c2c(c1)[C@@H](N(Cc1cc(C(F)(F)F)cc(C(F)(F)F)c1)c1nnn(C)n1)CCCN2C[C@H]1CC[C@H](C(=O)O)CC1
Request: // which entry has the larger IC50 cell viability value, P or Q ? Identify your selection by its label.
Result: P
(P: 14.3 µM, Q: 5.94 µM)

I: CC(=O)O[C@]1(C(C)=O)CC[C@H]2[C@@H]3C=C(C)C4=CC(=O)CC[C@]4(C)[C@H]3CC[C@@]21C
II: C=CC(=O)Nc1cc(Nc2nccc(-c3cn(C)c4ccccc34)n2)c(OC)cc1N(C)CCN(C)C
Request: Kindly identify which of I and II has the larger recorded IC50 cell viability value. Identify your selection by its label.
Result: II

1: C=CCNC1=C2C[C@@H](C)C[C@H](OC)[C@H](O)[C@@H](C)/C=C(\C)[C@H](OC(N)=O)[C@@H](OC)/C=C\C=C(/C)C(=O)NC(=CC1=O)C2=O
2: O=C(c1ccc(OCCN2CCCCC2)cc1)c1c(-c2ccc(O)cc2)sc2cc(O)ccc12
Request: Which of the two gives a bigger number for IC50 cell viability: 1 or 2 ? Indicate your choice by writing its label.
Result: 2

a: Cc1ccc(Nc2nccc(N(C)c3ccc4c(C)n(C)nc4c3)n2)cc1S(N)(=O)=O
b: COc1cc2ncnc(Nc3ccc(F)c(Cl)c3)c2cc1OCCCN1CCOCC1
c: Nc1nc(CC(=O)Nc2ccc(CCNC[C@H](O)c3ccccc3)cc2)cs1
d: COC(=O)c1ccc2c(C(=Nc3ccc(N(C)C(=O)CN4CCN(C)CC4)cc3)c3ccccc3)c(O)[nH]c2c1
e: C=C1/C(=C\C=C2/CCC[C@]3(C)[C@@H]([C@H](C)/C=C/[C@H](C)C(C)C)CC[C@@H]23)C[C@@H](O)C[C@@H]1O
Request: Let's sort these by IC50 cell viability, smallest first. Go ahead? Put the labels in the requested order and list them out.
Result: b, d, a, c, e
